# test protocol: self-splicing fitness, log relative to wild type (ln ratio); higher = more splicing; Tetrahymena group I intron in knt gene, E. coli kanamycin selection, DiMSum; sequences stand for … in CUCUCU…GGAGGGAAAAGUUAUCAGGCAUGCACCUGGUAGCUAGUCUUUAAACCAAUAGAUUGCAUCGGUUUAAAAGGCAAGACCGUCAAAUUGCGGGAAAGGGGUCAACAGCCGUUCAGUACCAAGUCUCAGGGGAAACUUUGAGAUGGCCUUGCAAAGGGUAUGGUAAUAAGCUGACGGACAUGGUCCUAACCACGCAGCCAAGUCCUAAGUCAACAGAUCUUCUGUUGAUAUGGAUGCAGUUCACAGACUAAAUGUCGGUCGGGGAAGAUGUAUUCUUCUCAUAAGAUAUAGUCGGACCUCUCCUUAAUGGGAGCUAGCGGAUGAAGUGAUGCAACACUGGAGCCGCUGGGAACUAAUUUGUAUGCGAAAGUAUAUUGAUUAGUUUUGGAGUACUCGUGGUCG;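 further: selection with 25 µg/mL kanamycin versus none on LB agar overnight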
# measurement setup: 30 °C
Entries annotated with measured self-splicing fitness (ln)
quantity kind: self-splicing fitness (ln)

[[record]]
sequence_text = "CCCCAGCAAUAUUACGACGG"
quantity_kind = "self-splicing fitness (ln)"
experimental_result = -3.1

[[record]]
sequence_text = "CGUCAGCAAUAUUACGACCU"
quantity_kind = "self-splicing fitness (ln)"
experimental_result = -0.193

[[record]]
sequence_text = "CGGUAGCAAUAUUACGAGGG"
quantity_kind = "self-splicing fitness (ln)"
experimental_result = -3.72

[[record]]
sequence_text = "AGUGAGCAAUAUUACGAUUA"
quantity_kind = "self-splicing fitness (ln)"
experimental_result = -2.67

[[record]]
sequence_text = "CAAAAGCAAUAUUACGACGA"
quantity_kind = "self-splicing fitness (ln)"
experimental_result = -0.512

[[record]]
sequence_text = "CGACAGCAAUAUUACGGCUG"
quantity_kind = "self-splicing fitness (ln)"
experimental_result = -3.32

[[record]]
sequence_text = "CAUGAGCAAUAUUACGUUUC"
quantity_kind = "self-splicing fitness (ln)"
experimental_result = -2.86

[[record]]
sequence_text = "ACUUAGCAAUAUUACGAAAC"
quantity_kind = "self-splicing fitness (ln)"
experimental_result = -3.64

[[record]]
sequence_text = "AGACAGCAAUAUUACGUGAC"
quantity_kind = "self-splicing fitness (ln)"
experimental_result = -2.89

[[record]]
sequence_text = "AGGCAGCAAUAUUACGGUGU"
quantity_kind = "self-splicing fitness (ln)"
experimental_result = -2.38

[[record]]
sequence_text = "AUACAGCAAUAUUACGAACG"
quantity_kind = "self-splicing fitness (ln)"
experimental_result = -0.79

[[record]]
sequence_text = "CGACAGCAAUAUUACGGCAG"
quantity_kind = "self-splicing fitness (ln)"
experimental_result = -0.376

